- System: Staphylococcus aureus FDA-209P
- Protocol details: antimicrobial activity, broth dilution method
- Format: cell-based
- Measurement parameters: Staphylococcus aureus, FDA209P, Staphylococcus aureus FDA-209P; broth dilution; read-out: minimum inhibitory concentration (MIC)
Please go through the items and note down their MIC.
One number for each entry, in µg/mL.

Compound	Tested system	MIC (µg/mL)
CCC1OC(=O)CC(O)C(C)C(OC2OC(C)C(OC3CC(C)(O)C(O)C(C)O3)C(N(C)C)C2OC(C)=O)C(CC=O)CC(C)C(=O)C=CC(C)=CC1COC1OC(C)C(O)C(OC)C1OC (stereo not shown) [2'-acetyltylosin, reference compound]	Staphylococcus aureus FDA-209P	1.56

State the recorded MIC for every item in the following list.
1. CCC1OC(=O)CC(O)C(C)C(OC2OC(C)C(OC3CC(C)(O)C(OC(=O)CSc4ccc(Cl)cc4)C(C)O3)C(N(C)C)C2O)C(CC=O)CC(C)C(=O)C=CC(C)=CC1COC1OC(C)C(O)C(OC)C1OC (stereo not shown)
2. CCC1OC(=O)CC(OC(C)=O)C(C)C(OC2OC(C)C(OC3CC(C)(O)C(OC(=O)CSCc4ccccc4)C(C)O3)C(N(C)C)C2O)C(CC=O)CC(C)C(=O)C=CC(C)=CC1COC1OC(C)C(O)C(OC)C1OC (stereo not shown)
3. CCC1OC(=O)CC(O)C(C)C(OC2OC(C)C(OC3CC(C)(O)C(O)C(C)O3)C(N(C)C)C2OC(C)=O)C(CC=O)CC(C)C(=O)C=CC(C)=CC1COC1OC(C)C(OC(=O)C(Cl)(Cl)Cl)C(OC)C1OC (stereo not shown)

[0.39, 0.78, 1.56]

###

- System: Staphylococcus aureus MS-8710
- Protocol details: antimicrobial activity, broth dilution method
- Assay type: cell-based
- Measurement parameters: Staphylococcus aureus, MS8710, Staphylococcus aureus MS-8710, drug-resistant clinical isolate; read-out: minimum inhibitory concentration (MIC)
// assign YES if MIC falls strictly below 50 µg/mL, else NO (ties count as NO)

Compound	Group
CCC1OC(=O)CC(O)C(C)C(OC2OC(C)C(OC3CC(C)(O)C(OC(=O)CS(=O)(=O)c4ccccc4)C(C)O3)C(N(C)C)C2O)C(CC=O)CC(C)C(=O)C=CC(C)=CC1COC1OC(C)C(O)C(OC)C1OC (centres unmarked) [Compound 43, 4"-benzenesulfonylacetyltylosin]	YES
CCCCCC(=O)OC1C(C)OC(OC2C(C)OC(OC3C(CC=O)CC(C)C(=O)C=CC(C)=CC(COC4OC(C)C(O)C(OC)C4OC)C(CC)OC(=O)CC(OC(C)=O)C3C)C(O)C2N(C)C)CC1(C)O (centres unmarked) [Compound 8]	YES
CCC1OC(=O)CC(O)C(C)C(OC2OC(C)C(OC3CC(C)(O)C(OC(=O)CCSc4ccccc4)C(C)O3)C(N(C)C)C2O)C(CC=O)CC(C)C(=O)C=CC(C)=CC1COC1OC(C)C(O)C(OC)C1OC (stereo not drawn) [Compound 39, 4"-β-phenylthiopropionyltylosin]	YES
CCC1OC(=O)CC(OC(C)=O)C(C)C(OC2OC(C)C(OC3CC(C)(O)C(OC(=O)CSc4ccncc4)C(C)O3)C(N(C)C)C2O)C(CC=O)CC(C)C(=O)C=CC(C)=CC1COC1OC(C)C(O)C(OC)C1OC (centres unmarked) [Compound 42, 3-acetyl-4"-(4-pyridyl)thioacetyltylosin]	YES

Kindly consider the entry below.
Lab note: MIC threshold 50 µg/mL. Does this compound come in strictly under it? CCC1OC(=O)CC(OC(C)=O)C(C)C(OC2OC(C)C(OC3CC(C)(O)C(O)C(C)O3)C(N(C)C)C2O)C(CC=O)CC(C)C(=O)C=CC(C)=CC1COC1OC(C)C(O)C(OC)C1OC (centres unmarked) [3-acetyltylosin, reference compound]
NO

###

- Tested on: Staphylococcus aureus MS-8710
- Protocol details: antimicrobial activity, broth dilution method
- Assay type: cell-based
- Measurement parameters: Staphylococcus aureus, MS8710, Staphylococcus aureus MS-8710, drug-resistant clinical isolate; read-out: minimum inhibitory concentration (MIC)
Kindly supply the reported MIC values for the records listed here.
Answers are plain numbers, in µg/mL.

Solved cases (3 shown):
Compound	Experimental result
CCC1OC(=O)CC(OC(C)=O)C(C)C(OC2OC(C)C(OC3CC(C)(O)C(OC(=O)C(O)c4ccccc4)C(C)O3)C(N(C)C)C2O)C(CC=O)CC(C)C(=O)C=CC(C)=CC1COC1OC(C)C(O)C(OC)C1OC (stereo not shown)	25
CCC1OC(=O)CC(OC(C)=O)C(C)C(OC2OC(C)C(OC3CC(C)(O)C(OC(=O)COc4ccccc4)C(C)O3)C(N(C)C)C2O)C(CC=O)CC(C)C(=O)C=CC(C)=CC1COC1OC(C)C(O)C(OC)C1OC (stereo not shown)	100
CCCCCCCCCC(=O)OC1C(C)OC(OC2C(C)OC(OC3C(CC=O)CC(C)C(=O)C=CC(C)=CC(COC4OC(C)C(O)C(OC)C4OC)C(CC)OC(=O)CC(O)C3C)C(O)C2N(C)C)CC1(C)O (stereo not shown)	100

Now for another entry.
Give reported MIC value for CCC1OC(=O)CC(OC(C)=O)C(C)C(OC2OC(C)C(OC3CC(C)(O)C(O)C(C)O3)C(N(C)C)C2OC(C)=O)C(CC=O)CC(C)C(=O)C=CC(C)=CC1COC1OC(C)C(OC(=O)C(Cl)(Cl)Cl)C(OC)C1OC (stereo not shown)
100

###

- System: Streptococcus pyogenes MH-771
- Protocol details: antimicrobial activity, broth dilution method
- Type: cell-based
- Measurement parameters: Streptococcus pyogenes, MH771, Streptococcus pyogenes MH-771, drug-resistant clinical isolate; read-out: minimum inhibitory concentration (MIC)
Measured property: MIC (mg/L)
Numbers only, in mg/L.

Solved cases below.
Compound	Units symbol	MIC
CCC1OC(=O)CC(OC(C)=O)C(C)C(OC2OC(C)C(OC3CC(C)(O)C(OC(=O)COc4ccccc4)C(C)O3)C(N(C)C)C2O)C(CC=O)CC(C)C(=O)C=CC(C)=CC1COC1OC(C)C(O)C(OC)C1OC (centres unmarked) [Compound 45, 3-acetyl-4"-phenoxyacetyltylosin]	mg/L	12.5
CCCCCCCCCC(=O)OC1C(C)OC(OC2C(C)OC(OC3C(CC=O)CC(C)C(=O)C=CC(C)=CC(COC4OC(C)C(O)C(OC)C4OC)C(CC)OC(=O)CC(O)C3C)C(O)C2N(C)C)CC1(C)O (centres unmarked) [Compound 10, 4"-n-capryl(or n-decanoyl)tylosin]	mg/L	50
CCC1OC(=O)CC(O)C(C)C(OC2OC(C)C(OC3CC(C)(O)C(OC(=O)CSc4ccc(Cl)cc4)C(C)O3)C(N(C)C)C2O)C(CC=O)CC(C)C(=O)C=CC(C)=CC1COC1OC(C)C(O)C(OC)C1OC (centres unmarked) [Compound 37, 4"-(4-chlorophenyl)thioacetyltylosin]	mg/L	3.13
CCC1OC(=O)CC(OC(C)=O)C(C)C(OC2OC(C)C(OC3CC(C)(O)C(OC(=O)C(O)c4ccccc4)C(C)O3)C(N(C)C)C2O)C(CC=O)CC(C)C(=O)C=CC(C)=CC1COC1OC(C)C(O)C(OC)C1OC (centres unmarked) [Compound 17]	mg/L	6.25
CCC1OC(=O)CC(O)C(C)C(OC2OC(C)C(OC3CC(C)(O)C(OC(=O)CS(=O)(=O)c4ccccc4)C(C)O3)C(N(C)C)C2O)C(CC=O)CC(C)C(=O)C=CC(C)=CC1COC1OC(C)C(O)C(OC)C1OC (centres unmarked) [Compound 43, 4"-benzenesulfonylacetyltylosin]	mg/L	3.13
CCC1OC(=O)CC(O)C(C)C(OC2OC(C)C(OC3CC(C)(O)C(OC(=O)CCC(C)C)C(C)O3)C(N(C)C)C2O)C(CC=O)CC(C)C(=O)C=CC(C)=CC1COC1OC(C)C(O)C(OC)C1OC (centres unmarked) [Compound 11, 4"-iso-caproyl(or iso-hexanoyl)tylosin]	mg/L	6.25

Consider the additional compound presented here.
Look up and report measured MIC for this entry: CCC1OC(=O)CC(O)C(C)C(OC2OC(C)C(OC3CC(C)(O)C(OC(=O)CSc4cccc(C)c4)C(C)O3)C(N(C)C)C2O)C(CC=O)CC(C)C(=O)C=CC(C)=CC1COC1OC(C)C(O)C(OC)C1OC (centres unmarked) [Compound 36, 4"-(3-methylphenyl)thioacetyltylosin]
25

###

Assign MIC to each entry below.
- System: Streptococcus pyogenes MH-771
- Protocol details: antimicrobial activity, broth dilution method
- Assay type: cell-based
- Measurement parameters: Streptococcus pyogenes, MH771, Streptococcus pyogenes MH-771, drug-resistant clinical isolate; read-out: minimum inhibitory concentration (MIC)
Answers are plain numbers, in µg/mL.

Provide the reported MIC of each entry below, same order.
1. CCC1OC(=O)CC(O)C(C)C(OC2OC(C)C(OC3CC(C)(O)C(OC(=O)CSC4CCCCC4)C(C)O3)C(N(C)C)C2O)C(CC=O)CC(C)C(=O)C=CC(C)=CC1COC1OC(C)C(O)C(OC)C1OC (centres unmarked) [Compound 40, 4"-cyclohexylthioacetyltylosin]
2. CCC1OC(=O)CC(O)C(C)C(OC2OC(C)C(OC3CC(C)(O)C(O)C(C)O3)C(N(C)C)C2OC(C)=O)C(CC=O)CC(C)C(=O)C=CC(C)=CC1COC1OC(C)C(OC(=O)C(Cl)(Cl)Cl)C(OC)C1OC (centres unmarked) [Compound 2, 2'-acetyl-4'"-trichloroacetyltylosin]
3. CCC1OC(=O)CC(O)C(C)C(OC2OC(C)C(OC3CC(C)(O)C(OC(=O)Cc4ccc([N+](=O)[O-])cc4)C(C)O3)C(N(C)C)C2O)C(CC=O)CC(C)C(=O)C=CC(C)=CC1COC1OC(C)C(O)C(OC)C1OC (centres unmarked) [Compound 14, 4"-(4-nitrophenyl)acetyltylosin]

6.25
200
3.13
